system: Escherichia coli TOP10; assay: shrunken log2 fold change of peptide-encoding DNA abundance (4.5 h post-induction vs induction); higher = less antimicrobial activity (less host growth inhibition); details: time post-induction: 4.5 h; library: site-saturation at positions 5, 18, 19, 20
Everything with shrunken log2 fold change lower than -0.03 is no (0); everything else, including exactly -0.03, is yes (1).

Request: Is shrunken log2 fold change for RRIRHRPPRLPRPRPRPKLIPRP at or above -0.03?
Result: yes (1)

Request: Form field: shrunken log2 fold change at least -0.03? Entry: RRIRRRPPRLPRPRPRPNNQPRP
Result: no (0)

Request: State whether the measured shrunken log2 fold change reaches -0.03, counting equality as reaching it, for RRIRARPPRLPRPRPRPRIAPRP
Result: yes (1)

Request: Determine whether measured shrunken log2 fold change meets or exceeds -0.03 for RRIRYRPPRLPRPRPRPYRAPRP
Result: no (0)

Request: State whether the measured shrunken log2 fold change reaches -0.03, counting equality as reaching it, for RRIRPRPPRLPRPRPRPLQPPRP
Result: yes (1)

Request: Does shrunken log2 fold change meet or surpass -0.03 for RRIRSRPPRLPRPRPRPQGPPRP ?
Result: no (0)

Request: Entry RRIRERPPRLPRPRPRPERSPRP : is its shrunken log2 fold change no less than -0.03?
Result: yes (1)

Request: Hi, just wondering whether RRIRERPPRLPRPRPRPREFPRP shows shrunken log2 fold change of -0.03 or higher.
Result: no (0)

Request: Decide: shrunken log2 fold change of RRIRQRPPRLPRPRPRPHLAPRP >= -0.03?
Result: no (0)

Request: Could you tell me if the measured shrunken log2 fold change of RRIRMRPPRLPRPRPRPALSPRP reaches -0.03 or more?
Result: yes (1)

Request: Is reported shrunken log2 fold change greater than or equal to -0.03 here: RRIRIRPPRLPRPRPRPAIGPRP
Result: no (0)

Request: Textbook exercise: given the entry RRIRRRPPRLPRPRPRPLSRPRP , state whether its shrunken log2 fold change is greater than or equal to -0.03.
Result: yes (1)

Request: Could you verify whether the entry RRIRLRPPRLPRPRPRPGQFPRP shows shrunken log2 fold change of no less than -0.03?
Result: yes (1)

Request: Form field: shrunken log2 fold change at least -0.03? Entry: RRIRSRPPRLPRPRPRPYYIPRP
Result: no (0)

Request: For this sequence, is measured shrunken log2 fold change -0.03 or higher? RRIRYRPPRLPRPRPRPIGVPRP
Result: no (0)

Request: Please check the record RRIRIRPPRLPRPRPRPHLYPRP and state if its shrunken log2 fold change is at or above -0.03.
Result: no (0)

Request: Could you verify whether the entry RRIRQRPPRLPRPRPRPQPDPRP shows shrunken log2 fold change of no less than -0.03?
Result: yes (1)

Request: Threshold query (shrunken log2 fold change >= -0.03) on RRIRKRPPRLPRPRPRPFRSPRP
Result: yes (1)

Request: Is the recorded value of shrunken log2 fold change equal to or greater than -0.03 for this sequence? RRIRARPPRLPRPRPRPKSYPRP
Result: no (0)

Request: Textbook exercise: given the entry RRIRKRPPRLPRPRPRPHHQPRP , state whether its shrunken log2 fold change is greater than or equal to -0.03.
Result: yes (1)

Request: Hi team, for RRIRERPPRLPRPRPRPLIGPRP , is the recorded shrunken log2 fold change at or above -0.03?
Result: no (0)

Request: Is shrunken log2 fold change at least -0.03? Consider RRIRARPPRLPRPRPRPWSGPRP
Result: no (0)

Request: shrunken log2 fold change >= -0.03 for RRIRDRPPRLPRPRPRPHVYPRP ?
Result: yes (1)

Request: Threshold query (shrunken log2 fold change >= -0.03) on RRIRERPPRLPRPRPRPCKHPRP
Result: no (0)

Request: Kindly determine if shrunken log2 fold change recorded for RRIRIRPPRLPRPRPRPQLPPRP is above or exactly -0.03.
Result: yes (1)

Request: Confirm if shrunken log2 fold change reported for the sequence RRIRERPPRLPRPRPRPSRKPRP is -0.03 or above.
Result: yes (1)

Request: Assess whether reported shrunken log2 fold change for RRIRHRPPRLPRPRPRPTTNPRP sits at -0.03 or higher.
Result: no (0)

Request: Would you say RRIRHRPPRLPRPRPRPIYGPRP shows shrunken log2 fold change at minimum -0.03?
Result: yes (1)

Request: Does shrunken log2 fold change meet or surpass -0.03 for RRIRMRPPRLPRPRPRPVTWPRP ?
Result: yes (1)

Request: Check if shrunken log2 fold change >= -0.03 (inclusive). Item: RRIRLRPPRLPRPRPRPNMCPRP
Result: yes (1)

Request: Can RRIRIRPPRLPRPRPRPFGCPRP be said to have shrunken log2 fold change at or above -0.03?
Result: no (0)

Request: Please check the record RRIRLRPPRLPRPRPRPCMGPRP and state if its shrunken log2 fold change is at or above -0.03.
Result: no (0)

----------
tested on: Escherichia coli TOP10; assay: shrunken log2 fold change of peptide-encoding DNA abundance (4.5 h post-induction vs induction); higher = less antimicrobial activity (less host growth inhibition); conditions: time post-induction: 4.5 h; library: site-saturation at positions 5, 18, 19, 20
Please use met whenever shrunken log2 fold change is not below -0.005, and not met whenever it is.

Request: State whether the measured shrunken log2 fold change reaches -0.005, counting equality as reaching it, for RRIRLRPPRLPRPRPRPALKPRP
Result: met

Request: Is shrunken log2 fold change for RRIRNRPPRLPRPRPRPGLYPRP at or above -0.005?
Result: not met

Request: Quick check: does RRIRQRPPRLPRPRPRPRSTPRP have shrunken log2 fold change greater than or equal to -0.005?
Result: met

Request: Is shrunken log2 fold change at least -0.005? Consider RRIRARPPRLPRPRPRPEPQPRP
Result: met

Request: In plain terms: is recorded shrunken log2 fold change at least -0.005 for RRIRLRPPRLPRPRPRPVNYPRP ?
Result: not met

Request: Does shrunken log2 fold change meet or surpass -0.005 for RRIRDRPPRLPRPRPRPYDTPRP ?
Result: not met

Request: Reported shrunken log2 fold change at or above -0.005? RRIRMRPPRLPRPRPRPFRWPRP
Result: not met

Request: Given the entry RRIRLRPPRLPRPRPRPASPPRP , answer whether its shrunken log2 fold change meets or surpasses -0.005.
Result: met

Request: shrunken log2 fold change >= -0.005 for RRIRLRPPRLPRPRPRPFLMPRP ?
Result: not met

Request: shrunken log2 fold change >= -0.005 for RRIRLRPPRLPRPRPRPCDIPRP ?
Result: not met

Request: Reported shrunken log2 fold change reaches at least -0.005 for RRIRYRPPRLPRPRPRPMSKPRP ?
Result: met

Request: Entry RRIRCRPPRLPRPRPRPKFIPRP : is its shrunken log2 fold change no less than -0.005?
Result: not met

Request: Form field: shrunken log2 fold change at least -0.005? Entry: RRIRHRPPRLPRPRPRPNPHPRP
Result: not met

Request: Is shrunken log2 fold change at least -0.005? Consider RRIRHRPPRLPRPRPRPNTFPRP
Result: not met

Request: # check: shrunken log2 fold change of RRIRIRPPRLPRPRPRPWMFPRP is greater than or equal to -0.005
Result: not met

----------
test system: Escherichia coli TOP10; test: shrunken log2 fold change of peptide-encoding DNA abundance (4.5 h post-induction vs induction); higher = less antimicrobial activity (less host growth inhibition); conditions: time post-induction: 4.5 h; library: site-saturation at positions 5, 18, 19, 20;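 note: peptides expressed intracellularly from a pBAD plasmid library in pooled LB shake-flask culture, induced with 0.3% L-arabinose, DNA abundance read by NGS, three biological replicates, DESeq2 with apeglm shrinkage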
quantity: shrunken log2 fold change
// return a plain number; no unit text

Lookup result for RRIRRRPPRLPRPRPRPYTGPRP ; measured shrunken log2 fold change: -0.126

So, RRIRERPPRLPRPRPRPSEEPRP ? Its shrunken log2 fold change was -0.0988

The sequence identified as RRIRPRPPRLPRPRPRPQACPRP registered its shrunken log2 fold change at -0.0282

shrunken log2 fold change reported for this sequence RRIRPRPPRLPRPRPRPTSNPRP : -0.123

So, RRIRQRPPRLPRPRPRPKGAPRP ? Its shrunken log2 fold change was 0.0159

// RRIRWRPPRLPRPRPRPHESPRP : shrunken log2 fold change value = -0.262

Field shrunken log2 fold change (entry RRIRIRPPRLPRPRPRPQIPPRP ) reads -0.216

In plain terms, RRIRYRPPRLPRPRPRPCQLPRP has a documented shrunken log2 fold change of -0.00957

Record RRIRHRPPRLPRPRPRPQAIPRP . Reported shrunken log2 fold change: -0.119

Entry RRIRLRPPRLPRPRPRPKIRPRP — recorded shrunken log2 fold change = -0.128

Sample RRIRTRPPRLPRPRPRPFDHPRP ; shrunken log2 fold change observed: -0.301

Form field shrunken log2 fold change, entry RRIRPRPPRLPRPRPRPFWNPRP : -0.478

Reported shrunken log2 fold change of RRIRWRPPRLPRPRPRPGHEPRP : 0.0994

Short answer for RRIRARPPRLPRPRPRPRVWPRP : shrunken log2 fold change was 0.827

The sequence listed as RRIRVRPPRLPRPRPRPWRGPRP shows shrunken log2 fold change equal to 0.378

Memo: RRIRERPPRLPRPRPRPVYEPRP , reported shrunken log2 fold change: -0.445

Noted for RRIRQRPPRLPRPRPRPVRWPRP : its shrunken log2 fold change reads 0.428

# sequence RRIRYRPPRLPRPRPRPKWPPRP ; its shrunken log2 fold change = -0.0557

In plain terms, RRIRERPPRLPRPRPRPGRSPRP has a documented shrunken log2 fold change of -0.032

# shrunken log2 fold change of RRIRPRPPRLPRPRPRPHLNPRP = -0.517

RRIRMRPPRLPRPRPRPSACPRP has a reported shrunken log2 fold change of 1.99

Consider RRIRIRPPRLPRPRPRPFGMPRP . Its measured shrunken log2 fold change is -0.498

# shrunken log2 fold change of RRIRRRPPRLPRPRPRPCNLPRP = -0.0686

The value of shrunken log2 fold change measured for the sequence RRIRERPPRLPRPRPRPKINPRP turned out to be -0.488

GET /value?item= RRIRMRPPRLPRPRPRPHDTPRP &field=shrunken log2 fold change returns 0.048

Quick note, shrunken log2 fold change for RRIRVRPPRLPRPRPRPMINPRP landed at -0.257

Sample RRIRQRPPRLPRPRPRPKHTPRP ; shrunken log2 fold change observed: -0.224

response.value for RRIRKRPPRLPRPRPRPHGFPRP (field: shrunken log2 fold change) = 0.056

shrunken log2 fold change measured on RRIRQRPPRLPRPRPRPCRTPRP = 0.0557

shrunken log2 fold change reported for this sequence RRIRCRPPRLPRPRPRPDDIPRP : 0.0301

Record summary for RRIRTRPPRLPRPRPRPYLVPRP : reported shrunken log2 fold change = -0.489

Short answer for RRIRQRPPRLPRPRPRPSNGPRP : shrunken log2 fold change was -0.687

Taken from the supplement of paper PMC9112550.
